Numbers sourced from PubChem BioAssay (NCATS).

assay: Quantitative High-Throughput drug screen in 47 multiple myeloma cell lines against the NCATS MIPE library collection: OCIMY7_PLB cell viability assay (AID 1918987); settings: OCI-MY7 myeloma viability, CellTiter-Glo ATP, 48 h; note: nearly all actives have a fitted effect of over 65% in size
Records with an inconclusive call do not appear. Activity calls are given as the source filed them. Calls come from the whole dose curve; as a rule, active = well fitted cell-killing curve with a large enough effect; inconclusive = small, poorly fitted or top-dose-only effect, or effect the other way; inactive = no such curve, though single readings can be large or run the other way.
Give one outcome, nothing more. List: active, inactive

Q) Test call, this compound: O=C1CCCC(=O)C1C(=O)c1ccc(C(F)(F)F)cc1[N+](=O)[O-]
A) inactive

Q) What outcome does the record of this test show for CO[C@@H]1C(N(C)C(=O)c2ccccc2)C[C@H]2O[C@]1(C)n1c3ccccc3c3c4c(c5c6ccccc6n2c5c31)C(=O)NC4=O (stereo partly drawn) ?
A) active

Q) How did this test come out for CCCCN(CCCC)CC(O)c1cc(Cl)cc2c1-c1ccc(Cl)cc1C2=Cc1ccc(Cl)cc1 (stereo not drawn) ?
A) active

Q) What outcome does the record of this test show for CC(=O)O[C@]1(C(C)=O)CC[C@H]2[C@@H]3C=C(Cl)C4=CC(=O)[C@@H]5C[C@H]5[C@]4(C)[C@@H]3CC[C@@]21C ?
A) active

Q) What call does the record list for CC1C(=O)OC2C(O)C34C5CC(C(C)(C)C)C36C(OC(=O)C6O)OC4(C(=O)O5)C12O (stereo not drawn) ?
A) inactive

Q) # outcome recorded in this test, key = CC(C)(C)c1nc(-c2cccc(NS(=O)(=O)c3c(F)cccc3F)c2F)c(-c2ccnc(N)n2)s1
A) active

Q) Any idea what this test logged for c1cc(OCCN2CCCCC2)cc(-c2n[nH]c3ccc(-c4ncn[nH]4)cc23)c1 ?
A) active

Q) Please let me know the test result on file for CC1(C)C(N(O)C(=O)Nc2ccc(Cl)cc2)N(c2ccc(Cl)cc2)C(=O)N1CC(=O)NN=CC=Cc1ccc([N+](=O)[O-])o1 (stereo not drawn) .
A) active

Q) Identify the outcome logged in this assay for the compound shown: CCc1cccc(CC)c1NC(=O)N1Cc2[nH]nc(NC(=O)c3ccc(N4CCN(C)CC4)cc3)c2C1
A) active

Q) I'd appreciate the recorded outcome for CCOC(=O)[C@@H](N)CCC(=O)N[C@@H](CSCc1ccccc1)C(=O)N[C@@H](C(=O)OCC)c1ccccc1 from this test.
A) active

Q) // param item: O=C1NC(=O)C(=Cc2ccc(-c3ccc(F)cc3O)o2)S1 ; yields the recorded call
A) active

Q) Per the assay record, what outcome was assigned to CNC(=O)c1ccc2c(C(=Nc3cccc(CN(C)C)c3)c3ccccc3)c(O)[nH]c2c1 ?
A) active

Q) What did this assay record as the result for O=C(O)C1=CO[C@@H](O[C@@H]2O[C@H](CO)[C@H](O)[C@H](O)[C@H]2O)[C@@H]2C(CO)=CC[C@H]12 ?
A) inactive

Q) // return assay outcome for FC(F)(F)c1ccc(C=Cc2nc(COc3ccc(CCCCn4ccnn4)cc3)co2)cc1
A) active

Q) State the result this test recorded for COc1c(C)cnc(Cn2cnc3c(Cl)nc(N)nc32)c1C .
A) active

Q) Per the records of this test, what outcome belongs to COc1ccc(-c2ccc3ncc4c(c3c2)n(-c2ccc(N3CCNCC3)c(C(F)(F)F)c2)c(=O)n4C)cn1 ?
A) active

Q) Name the outcome recorded for NS(=O)(=O)c1ccc(Nc2nc(OCC3CCCCC3)c3[nH]cnc3n2)cc1 in the assay.
A) active

Q) Query: recorded result category for CN[C@@H]1[C@@H](O)[C@@H](O[C@@H]2[C@@H](O)[C@H](O[C@H]3O[C@H](CN)[C@@H](O)[C@H](O)[C@@H]3O)[C@@H](N)C[C@@H]2NC(=O)[C@@H](O)CN)OC[C@]1(C)O in this test
A) inactive

Q) Field: outcome | Entry: COc1ccc(-c2oc3c(CC=C(C)C)c(O)cc(O)c3c(=O)c2O)cc1
A) active

Q) GET /call?item= CC(=O)N1CCN(c2ccc(OCc3nn(C)c(C)c3-c3cccc4c(CCCOc5cc(C)c(Cl)c(C)c5)c(C(=O)O)n(Cc5cccnc5)c34)cc2)CC1 returns the recorded outcome of this test.
A) active

Q) Which outcome did this test record for the compound CCCCCOC(=O)Nc1nc(=O)n([C@@H]2O[C@H](C)[C@@H](O)C2O)cc1F (stereo partly drawn) ?
A) inactive

Q) Name the outcome recorded for CCNC(=O)Nc1ccc(Oc2ncnc(N)c2C=NOC)cc1Cl in the assay.
A) active

Q) In this assay, the call recorded for C[C@@H](NC(=O)c1ncnc(N)c1Cl)c1ncc(C(=O)Nc2cc(C(F)(F)F)c(Cl)cn2)s1 was what?
A) active

Q) Please share the test call associated with COc1cc2nc(-c3cc(F)ccc3O)nc(N[C@@H]3CNC[C@@H]3C(C)(C)O)c2cc1OC .
A) active

Q) Which outcome did this test record for the compound CN(C)S(=O)(=O)c1ccc2c(c1)C(=Cc1cc3c([nH]1)CCCC3)C(=O)N2 ?
A) active

Q) What outcome does the record of this test show for CNC1[C@H](O)C(O[C@@H]2C(O)C(O[C@H]3O[C@H]([C@@H](C)NC)CC[C@H]3N)[C@@H](N)C[C@H]2N)OC[C@]1(C)O (stereo partly drawn) ?
A) inactive

Q) # lookup: test call for CCCCCCCCCCCCCC(=O)N[C@H](CO)[C@H](O)c1ccc([N+](=O)[O-])cc1
A) active

Q) // outcome(item) with item = CN(C(Cc1ccc(OS(=O)(=O)c2cccc3cnccc23)cc1)C(=O)N1CCN(c2ccccc2)CC1)S(=O)(=O)c1cccc2cnccc12 (stereo not drawn)
A) active

Q) // return assay outcome for CC(C)CNc1ccnc(NCc2csc(-c3ccccc3)n2)n1
A) active

Q) Hello, I am checking results. What call was entered for C=C1c2cccc(O)c2C(O)=C2C(=O)[C@@]3(O)C(O)=C(C(N)=O)C(=O)[C@@H](N(C)C)[C@@H]3[C@@H](O)[C@H]12 ?
A) active

Q) Recorded test outcome, item CCOC(=O)N1CCN([N+]([O-])=NOc2cc(ON=[N+]([O-])N3CCN(C(=O)OCC)CC3)c([N+](=O)[O-])cc2[N+](=O)[O-])CC1
A) active

Q) Write down the call the test reported for this compound. Item: C=C1[C@H](n2cnc3c(=O)[nH]c(N)nc32)C[C@H](O)[C@H]1CO
A) active

Q) For this compound, state the assay outcome: CN(C)CCN(C)C(=O)c1ccc(NC(=O)Nc2ccc(-c3nc(N4CCOCC4)c4ccn(CC(F)(F)F)c4n3)cc2)cc1
A) active
